Parameter: Activity. Scope: all listed entries.
# Assay Notes: Immunostimulatory activity in Balb/c mouse splenocytes assessed as increase in conA-induced T cell proliferation at 5 uM after 72 hrs by MTT assay relative to control
# Assay type: functional, Splenocyte
Quick note: give the figure in %, leave out the unit.

Query block: Indicate the recorded Activity value for this compound: CCOC(=O)c1ccc(N2C(=O)CS[C@@H]2[C@H]2O[C@H](CO)[C@@H](O)[C@@H]2O)cc1
Result block: 132.5

More entries:
Query block: Indicate the recorded Activity value for this compound: CCOC(=O)c1ccc(N2C(=O)CS[C@H]2[C@H]2O[C@H](CO)[C@@H](O)[C@@H]2O)cc1
Result block: 153.2

Query block: Indicate the recorded Activity value for this compound: COc1ccc(N2C(=O)CS[C@@H]2[C@H]2O[C@H](CO)[C@@H](O)[C@@H]2O)cc1
Result block: 108.8

Query block: Indicate the recorded Activity value for this compound: O=C1CS[C@H]([C@H]2O[C@H](CO)[C@@H](O)[C@@H]2O)N1c1cccc(Cl)c1
Result block: 162.2
